Test: folding stability dG unfold from trypsin proteolysis; higher = more stable
parameter: folding stability dG unfold
State the result as a value with its unit after it.

Illustrative cases are given below, each with its answer.
sequence text | folding stability dG unfold
SAGGSAGGSGIPVEPIPVRNPKGEIVEVIRFPEDFALVVFPSGERALLRGPELSLRDVVFFPLSAGGSAGGS [r12_491_TrMRF] | 0.675 kcal/mol
SAGGSADGRVVELPVRIRLYRRDPVSGRWELVEEFEVPVRVPAPKDAVVGLRIERRGDRFRIVVGVSAGGSA [r15_537_TrMRF] | 2.74 kcal/mol
SAGGSIKVFESESTDPATGKVTTTTTTVTESSEEPTPEAAKNTPPGETTTTTTTTTTTSPVPPGTAASAGGS [r8_274_JUSTAS] | 0.476 kcal/mol

**Q:** Value lookup for folding stability dG unfold; key = SRIKISIFRPGKIIPEIPIKVDSVEEAVEKVLEYIRKFPPNAPYYIMIEVEHTDPANGQKQEGTVHIPIKSA [r9_245_TrROS]
**A:** 2.22 kcal/mol

---

Assay: folding stability dG unfold from trypsin proteolysis; higher = more stable
Everything with folding stability dG unfold lower than 2 kcal/mol is not fulfilled; everything else, including exactly 2 kcal/mol, is fulfilled.

Here's what some known entries look like.
sequence text | label value
SAGGSAKRKVEIEIVLSAEELEEAIKEGKPLSEELQKRIEELLKKAEEAGIDEVRIRIVPPGLPEPSAGGSA [r15_304_TrROS_Hall] | not fulfilled
SAGGSAGGKIKLDGKEIVIVMSKEEKEKIAKELKEKFPNVKIKVVEGMSEEEAAKKADLVIVFDSAGGSAGG [r6_679_TrROS_Hall] | not fulfilled
SAGVEELFRRLGAEVSVTRRPDGSLVVTFRLPDGRTIVVFVTPDGVRVVVVDPSGERRTLSLEDLKRLASAG [r14_578_TrMRF] | fulfilled
SAGGGPPSSMVKKTYTVTGTDPDALAAAVRAAIAAAHPDVEITEVTVSRDPSSDRYTVTVDVLSSVASAGGS [r8_120_JUSTAS] | fulfilled
SAGGSAGGSAGGSKIENIKDIERNPNPDGHYMITIPNGWQIVVRMDKNGKMEIEIVPLKSAGGSAGGSAGGS [r4_177_TrROS] | not fulfilled
TTVTTPKNGLININLTDKKGNKYTFTAPVKDPVETLEKLKKLIKDLFPEYKDVKVKVVSVDGINIKVVVDIS [r1_389_TrMRF] | fulfilled

**Q:** Is it the case that SAGGSAGGELEVEIVSVEFDEETKEIRIKIYVNGKLIEEKTIKIEPVKVYYKTKDGKKVSAEDLSAGGSAGG [r6_832_TrROS_Hall] has folding stability dG unfold reaching or exceeding 2 kcal/mol?
**A:** not fulfilled

**Q:** Is it the case that SAGGSAGGSAGSWELSYRFPGVQIEVTYSPEWGFITEIKVQPLPPPPPPSPEDAKEMKEKSAGGSAGGSAGG [r11_320_TrROS] has folding stability dG unfold reaching or exceeding 2 kcal/mol?
**A:** not fulfilled

**Q:** Is it the case that SAGGSAGGSGYTTTTSTSISLSPTSFTVTTTTTTTDPVTKTTTVTTTTTTVPLPPSLLSLVSSSAGGSAGGS [r12_885_JUSTAS] has folding stability dG unfold reaching or exceeding 2 kcal/mol?
**A:** fulfilled

---

Assay: folding stability dG unfold (combined trypsin and chymotrypsin); higher = more stable
Below: a set of entries, each annotated with reported folding stability dG unfold.
Write the answer as a number in kJ/mol, unit excluded.

Illustrative cases are given below, each with its answer.
sequence text | measurement units | val
SAGGKTVVIELDGARIEFNEDDGTITVWMPREELEALKAALPPGAEIVEVRERPDGWVQVTIRITPPSAGGS [r8_415_TrROS_Hall] | kJ/mol | 16.3
SKKVTLPIRFPWNGWEIEITAEELAEKKGLDPEDLTIHVVMPGPGWMYTIKIDPDGIEIEPIGPVPPNDMSA [r9_819_TrROS] | kJ/mol | 10.6
SAGGSAGGSAGMKSTVTQPGDTWTITITDPETGEVTTYTLTPAQLGELAASSRPVAVAPGSAGGSAGGSAGG [r11_741_JUSTAS] | kJ/mol | 5.2
SAGGSAGGSAKITITKEDIVSYDEENKTFTIKLKDGSTIKIRVEKVKDGKIKVYDEDTGKPISAGGSAGGSA [r18_418_TrROS_Hall] | kJ/mol | 6.89
SAGSAVVRDFDFEVPPGYGVLDVTVTEGPGPPVWEGTVTFQAGGAPETLTVTIPVDPATGARSVAMTAGSAG [r5_136_JUSTAS] | kJ/mol | -0.983

**Q:** Value lookup for folding stability dG unfold; key = SAGGSAGGSASMDTVVEVGPEILSTGLPIEKVTYDPNTGKTYIETPDKLYVIDSDGNITVDASAGGSAGGSA [r18_445_JUSTAS]
**A:** 7.2

**Q:** Value lookup for folding stability dG unfold; key = SAGGSAGGSAGGSMVLYERVPASELPPGKGETLLIREVTVEKLPGNRIILNEGVKVIPPSAGGSAGGSAGGS [r4_444_JUSTAS]
**A:** -3.48

**Q:** Value lookup for folding stability dG unfold; key = SAGGGSATLVGIFPEKGYLVVLTITTDGDDFSIGELKVTFEPLDDDSVKATFYTPSGQKHDAIGLPVASAGG [r13_515_TrMRF]
**A:** 6.13

**Q:** Value lookup for folding stability dG unfold; key = GMVLVRVELYRPDEEELVAEVEIPFPVPESLLENLSEEEREKLREEAEKAAEKLAEELGDVEVKPEIYTDLS [r1_115_TrMRF]
**A:** -1.33

**Q:** Value lookup for folding stability dG unfold; key = SAGGSAAKIDPKNGTITIYNKKTGKKIKIKIKNLPPGAKVTIEIKNGKITIKVDGKTIEINIKEIKSAGGSA [r15_864_TrROS_Hall]
**A:** 11.9

**Q:** Value lookup for folding stability dG unfold; key = SAGGSAGGSAGKKKVLILGGDAVATAKELKKLGEDVEVEVLESGEDLEEHLKNYDLVLSGSAGGSAGGSAGG [r17_225_TrMRF]
**A:** 0.445

**Q:** Value lookup for folding stability dG unfold; key = SAGGSAGGSEEKTVLARIKITFPDGEKREIEVEMTLDELKKLLEELGLSEEEVKIEVELVPLPSAGGSAGGS [r20_154_TrROS_Hall]
**A:** 15.9

**Q:** Value lookup for folding stability dG unfold; key = SAGGSAGGSNLEEFLAKLPPDVEVVVDPETGTVLVRFPKTGTVAVFRVDAAEGKVELVEVKPVSAGGSAGGS [r12_82_TrMRF]
**A:** 15.8

**Q:** Value lookup for folding stability dG unfold; key = SAGGSAGGMKVEVVFLVPGEVFSKFTPPLSEDDPVLLVLVFDVPAPPPVPRYVYDPETGEWRPESAGGSAGG [r6_211_TrMRF]
**A:** 13.5

**Q:** Value lookup for folding stability dG unfold; key = SAGGMKVTRLPNALVFEYPLPNSTLRIVVTPGDGTYTLELYRDGKLIATFPSPGPVADLVEAAIKALSAGGS [r8_276_TrMRF]
**A:** 12.6

**Q:** Value lookup for folding stability dG unfold; key = SAGGSAEEEVETVTLTVTVTVPPAPEVEVVSVEVERLPDGTLRVRAVVRLKDVPDRFVEVELTIRPSAGGSA [r15_627_TrROS_Hall]
**A:** 13.3

**Q:** Value lookup for folding stability dG unfold; key = SAGGMKIIPITPEMIEEAKKLGLTPEDEAFEFEVTLPNGEVLRGTLIIPPDNPDIPVEAEPYLNLDKSAGGS [r16_497_TrMRF]
**A:** 2.94

**Q:** Value lookup for folding stability dG unfold; key = SAGGSAGGSAGNSVTILPIPETDKYLVVVSDNSGKFTVFDVDSSDLEDVVKALPSNYTVTSAGGSAGGSAGG [r11_569_TrMRF]
**A:** 4.36

**Q:** Value lookup for folding stability dG unfold; key = SAGGSAGGSAGPDKPIYVMIKFEHPGRKYTHSFEFDSPEDIEEVLDRLPPGYEIKEVEIFSAGGSAGGSAGG [r17_410_TrROS]
**A:** 2.02

**Q:** Value lookup for folding stability dG unfold; key = SAGGSMLEVYYRIPPDIPLEEALERVAREVEEVLRARYGGPVTVEAEEVERPPDDETLLRVLVRFESAGGSA [r2_214_TrMRF]
**A:** 9.91

---

Assay: folding stability dG unfold from chymotrypsin proteolysis; higher = more stable
parameter: folding stability dG unfold (kcal/mol)
Write the answer as a number in kcal/mol, unit excluded.

sequence text | measurement units | folding stability dG unfold
SAGGSAGGMKVEVVFLVPGEVFSKFTPPLSEDDPVLLVLVFDVPAPPPVPRYVYDPETGEWRPESAGGSAGG [r6_211_TrMRF] | kcal/mol | 3.72
SAGGSAGGSAGGMEVYRNPETGTLVFLFELEDGSYVAVTINPDGSVEVRVFDKDGRWVPSAGGSAGGSAGGS [r10_299_TrROS_Hall] | kcal/mol | 3.51
SAGGSAGGSAGGDVNSPNIPPVLTVEPVEVLDPGGGGLRRRVVYVAPGGIVLETEERPESAGGSAGGSAGGS [r10_261_JUSTAS] | kcal/mol | 0.702
SAGGFVTFKAPPVLIEAFKKAGLTPSEAKTLLLPVKFGDKEVVVEVTFYPETGEVKVKVLSFGTEFEAESAG [r5_545_TrMRF] | kcal/mol | 3.38
SAGGSAGGSAGGSVTYEADEVEIKEFTDPSTGKKYVTVTFPGPGGPVTTTLPADLIEELSAGGSAGGSAGGS [r10_447_JUSTAS] | kcal/mol | 1.48

**Q:** Value lookup for folding stability dG unfold; key = SAGGSAGGSMKKLKITFPPGMTEEELKKKIEELAKKLNLEVVKIKSIEYDKENKEVTITVEIKSAGGSAGGS [r12_131_TrROS_Hall]
**A:** 3.77

**Q:** Value lookup for folding stability dG unfold; key = SAGMPPPEEVFVVKVRFDGKELTLVVRVPPGMSAEEVAKKLAEELRKKFGPDIEVEVRRVSREELLEALSAG [r5_583_TrROS_Hall]
**A:** 2.95

**Q:** Value lookup for folding stability dG unfold; key = SAGGSAGGALTPTDEVTLTLPDGTVRPGRVEVLPDNVVRVRLEGSEVLLTRDPEGDEVTVERVASAGGSAGG [r6_68_JUSTAS]
**A:** 0.964

**Q:** Value lookup for folding stability dG unfold; key = SAGGSAGGSDTPTINIPPGMGNPEQAIEQLKEIREHFPPGKKISISAPGGWKPELKEAGLITVSAGGSAGGS [r12_992_TrROS]
**A:** 1.23

**Q:** Value lookup for folding stability dG unfold; key = MKPIPAEEIRDLAQKLGLPLPPGQIQIKVRHNNKKKTFPIPAGDPITIDDIVENMQQQNPNIKDIEIVIHPS [r1_135_TrROS]
**A:** -0.389

**Q:** Value lookup for folding stability dG unfold; key = SAGGSDLKVQVNKDGNTIRIQLPDGKPIFEIPFYRYDPDDGKPLEPWTIRMRLDPDGNIKIEEITPSAGGSA [r2_362_TrROS]
**A:** 1.45

**Q:** Value lookup for folding stability dG unfold; key = SAGGSAGGSAAMTVSEVSSSPDPSSDYLSFEVRTTETVKVPGTKAPVTTTVTTTPTKVSKLLSAGGSAGGSA [r18_41_JUSTAS]
**A:** -0.177

**Q:** Value lookup for folding stability dG unfold; key = ITITYDKETGELTVTLSVEIEREDGYLVRVSVTIRINPNGEIKIEKKIEVIKLPPAEVKLTDEELEKLKKES [r1_4_TrROS_Hall]
**A:** 2.51

**Q:** Value lookup for folding stability dG unfold; key = SAGGSAGGSDKDVKIKVDPERTPDGNYYYRIEIENGKEINIHMPPENMTPEDAKDFVKDIIKKSAGGSAGGS [r12_218_TrROS]
**A:** -0.44

Data credit: the supplement of paper PMC12764529
